Experiment: protein stability index of a GFP-peptide fusion (yeast GPS) (PSI 1-4); higher = more stable; sorted into four equal gates, so the index is relative within each strain
Conditions: doa10∆
Task for the reader: assign each of the following sequences its reported protein stability index.
Answers are plain numbers.

>  <seq.text>
LQLSKTPLSIKIMVAEW [SRB8]

>  <protein stability index>
2.31

$$$$
>  <seq.text>
GNSFNKSSNDTIEHAAD [YCG1]

>  <protein stability index>
2.14

$$$$
>  <seq.text>
PPGLDALVKPETQFKLS [CDC53]

>  <protein stability index>
2.82

$$$$
>  <seq.text>
THKVTDIYSHEYKVITS [YMR129W/POM152]

>  <protein stability index>
1.71

$$$$
>  <seq.text>
KILVLTGAGVSTSLGIP [SIR2]

>  <protein stability index>
2.35

$$$$
>  <seq.text>
SAHQSPIMQTQMPLNSN [SNF2]

>  <protein stability index>
2.94

$$$$
>  <seq.text>
QEKESQIQLAESELSLL [SMC4]

>  <protein stability index>
2.81

$$$$
>  <seq.text>
LIVIDVVEGVTFVVEQL [SNU114]

>  <protein stability index>
1.57

$$$$

Kindly give each listed record's protein stability index.
1. MEDEILSLGMDFIKFDQ [BRN1]
2. NKQIEILTDLVNYRHFK [ITC1]
3. LILRDFLNNGEVDSASD [RPN3]
4. NLSIDEVAVPDRVAKVL [RPO31]
5. QKYNLLHVLPTLNSRAL [SNM1]
6. MQVLNTKSETKQENETM [MED11]
7. ADINKNFLSVITNKHQE [RPN2]

[3.23, 2.93, 3.07, 3.09, 1.45, 2.79, 1.93]

Kindly give each listed record's protein stability index.
1. SLSDEVMRNEIRITSLQ [SIR4]
2. RSVDRAGRKFKSRRCDD [POP4]
3. YFFYASRPEYSCTFWSD [YJL039C/NUP192]

1. 2.92
2. 3.1
3. 1.22

Kindly give each listed record's protein stability index.
1. NKLLRRKLMEMENILQR [YIL149C/MLP2]
2. MSQGQSKKLDVTVEQLR [NSL1]
3. SVVRVLVHTQIRKTPLA [RPL3]
4. QDDDDYVDTATAKRKSR [IRR1]
5. FTIDAKPPISDSVFSFG [YLR335W/NUP2]

[3.41, 2.64, 1.19, 2.83, 3.13]

Kindly give each listed record's protein stability index.
1. NYQYKIQELRKLLKSLL [MED7]
2. HDSSNGLFQVLHNFESV [NUT1]
3. LIGCIDEAKDFIVSGTA [PUP3]

1. 1.43
2. 3.16
3. 2.59

Kindly give each listed record's protein stability index.
1. RVASDTVHEMEEELKKL [SMC4]
2. SSSTQNVFVILMDKCLP [DIS3]
3. RMFEKNVMLNIYPRTVI [SKI6]
4. LSTSAFMEIVLEYNVAL [YML031W/NDC1]

3.37
1.97
2.21
1.98

----------
Test: protein stability index of a GFP-peptide fusion (yeast GPS) (PSI 1-4); higher = more stable; sorted into four equal gates, so the index is relative within each strain
Details: ubr1∆
Task for the reader: assign each of the following sequences its reported protein stability index.
Give bare numbers.

>  <seq.text>
SIQMEFMLRKQDPKTLV [SSN2]

>  <value.reported>
2.05

$$$$
>  <seq.text>
QQDQPEQSEQPEQHQDK [RPN10]

>  <value.reported>
3.13

$$$$
>  <seq.text>
DIISGKIHSILPVMESL [YJR042W/NUP85]

>  <value.reported>
2.4

$$$$

Kindly give each listed record's protein stability index.
1. GGSGNGDDVVNDVQGID [RPP1]
2. KYLGLKPGSIDAISQVI [FAS1]
3. FIEDLAPEQQVQQFAQL [UBP6]
4. LQDELHKVSSQSTNLNR [YCS4]
5. VLSDDAKKLSSFDFGNE [ARP9]
6. ERLMTWKFKSLIEILRL [RRI2]
7. YGTRPLVLPPVVTSSVA [SNF2]
8. ERYSDKYLKKRKIGISI [RPC31]

3.1
3.01
2.98
2.87
3.06
2.31
1.94
2.44

The measured values listed here are drawn from the supplement of paper PMC9732359.
